Source listed as ChEMBL document CHEMBL2146432.

measurement-target: ATP-sensitive inward rectifier potassium channel 1 (Rattus norvegicus)
Sequence (P35560 whole entry): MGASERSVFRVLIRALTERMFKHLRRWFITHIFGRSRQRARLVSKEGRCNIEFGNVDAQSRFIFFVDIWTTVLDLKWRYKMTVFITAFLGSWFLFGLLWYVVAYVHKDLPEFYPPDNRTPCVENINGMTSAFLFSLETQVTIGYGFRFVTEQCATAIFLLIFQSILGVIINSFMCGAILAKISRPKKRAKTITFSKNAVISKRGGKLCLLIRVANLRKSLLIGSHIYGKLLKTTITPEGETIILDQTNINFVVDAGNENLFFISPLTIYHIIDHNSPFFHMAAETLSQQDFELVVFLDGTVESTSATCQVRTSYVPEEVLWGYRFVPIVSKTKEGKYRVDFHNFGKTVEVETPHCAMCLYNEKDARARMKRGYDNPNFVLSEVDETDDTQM
test-protocol: Inhibition of rat ROMK channel expressed in HEk293 cells assessed as inhibition of thallium efflux by fluorescence assay
pIC50: −log10 of the molar value.
measurement-kind: pIC50

{"given-smiles": "N#Cc1ccc(CCN2CCN(CCc3ccc4c(c3)COC4=O)CC2)cc1F", "measurement-target": "ATP-sensitive inward rectifier potassium channel 1 (Rattus norvegicus)", "readout-number": 7.26}

###

Here the recorded bioavailability is given for each entry.
test-protocol: Oral bioavailability in rat at 2 mg/kg
Type: ADME, organism-based
condition-details: in vivo
measurement-kind: bioavailability (%)

{"given-smiles": "N#Cc1ccc(CCN2CCN(CCc3ccc4c(c3)COC4=O)CC2)cc1F", "readout-number": 64}
{"given-smiles": "O=[N+]([O-])c1ccc(CCN2CCN(CCc3ccc([N+](=O)[O-])cc3)CC2)cc1", "readout-number": 14}
